B1: ZNF649 (parent)
chain: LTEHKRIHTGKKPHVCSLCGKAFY

# Variants of: B1
# testName: protein stability index of a GFP-peptide fusion (GPS, HEK-293T) (PSI 1-6); higher = more stable;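 note: lentivirally expressed fusions sorted by FACS into six bins by GFP to DsRed ratio, PSI derived from sequencing read proportions per bin multiplied by bin number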
# measurementConditions: c terminus: a fixed tail appended

{"mutationCode": "P13S", "protein stability index": 2.33}
{"mutationCode": "H14G", "protein stability index": 2.22}
{"mutationCode": "K5M", "protein stability index": 2.79}
{"mutationCode": "C16R", "protein stability index": 2.4}
{"mutationCode": "T2F", "protein stability index": 1.7}
{"mutationCode": "L1Q", "protein stability index": 3.02}
{"mutationCode": "K12L", "protein stability index": 2.5}
{"mutationCode": "T2V", "protein stability index": 2.27}
{"mutationCode": "G10I", "protein stability index": 2.49}
{"mutationCode": "P13I", "protein stability index": 2.84}
{"mutationCode": "H8Y", "protein stability index": 2.89}
{"mutationCode": "K11I", "protein stability index": 2.77}
{"mutationCode": "A22I", "protein stability index": 2.62}
{"mutationCode": "P13T", "protein stability index": 3.55}
{"mutationCode": "H4V", "protein stability index": 1.94}
{"mutationCode": "K21E", "protein stability index": 2.67}
{"mutationCode": "H4C", "protein stability index": 2.78}
{"mutationCode": "G10L", "protein stability index": 2.27}
{"mutationCode": "A22N", "protein stability index": 3.23}
{"mutationCode": "K11A", "protein stability index": 2.32}
{"mutationCode": "G10A", "protein stability index": 2.78}
{"mutationCode": "K21N", "protein stability index": 3.08}
{"mutationCode": "L1E", "protein stability index": 2.87}
{"mutationCode": "H4R", "protein stability index": 2.24}
{"mutationCode": "V15D", "protein stability index": 2.93}
{"mutationCode": "K11V", "protein stability index": 2.88}
{"mutationCode": "L1K", "protein stability index": 3.22}
{"mutationCode": "R6K", "protein stability index": 2.33}
{"mutationCode": "K21L", "protein stability index": 1.77}
{"mutationCode": "L18M", "protein stability index": 3.36}
{"mutationCode": "G10Q", "protein stability index": 2.28}
{"mutationCode": "H8M", "protein stability index": 2.49}
{"mutationCode": "S17G", "protein stability index": 1.72}
{"mutationCode": "K5D", "protein stability index": 3.35}
{"mutationCode": "G20L", "protein stability index": 2.06}
{"mutationCode": "P13R", "protein stability index": 3.48}
{"mutationCode": "K12D", "protein stability index": 3.14}
{"mutationCode": "V15A", "protein stability index": 1.54}
{"mutationCode": "T9C", "protein stability index": 2.32}
{"mutationCode": "G10D", "protein stability index": 2.63}
{"mutationCode": "C16V", "protein stability index": 2.2}
{"mutationCode": "L1P", "protein stability index": 3.05}
{"mutationCode": "K11Q", "protein stability index": 3.01}
{"mutationCode": "K11L", "protein stability index": 2.96}
{"mutationCode": "T2I", "protein stability index": 2.04}
{"mutationCode": "L1A", "protein stability index": 3.24}
{"mutationCode": "K21I", "protein stability index": 2.11}
{"mutationCode": "T9F", "protein stability index": 2.8}
{"mutationCode": "H8C", "protein stability index": 3.2}
{"mutationCode": "T2Q", "protein stability index": 2.58}
{"mutationCode": "T2D", "protein stability index": 3.12}
{"mutationCode": "I7A", "protein stability index": 2.52}
{"mutationCode": "S17K", "protein stability index": 2.34}
{"mutationCode": "I7H", "protein stability index": 2.16}
{"mutationCode": "E3Q", "protein stability index": 2.32}
{"mutationCode": "Y24R", "protein stability index": 2.42}
{"mutationCode": "L18C", "protein stability index": 3.2}
{"mutationCode": "R6L", "protein stability index": 2.14}
{"mutationCode": "S17M", "protein stability index": 2.83}
{"mutationCode": "K12F", "protein stability index": 2.32}
{"mutationCode": "V15N", "protein stability index": 2.05}
{"mutationCode": "L18A", "protein stability index": 1.97}
{"mutationCode": "T2Y", "protein stability index": 2.31}
{"mutationCode": "E3H", "protein stability index": 1.68}
{"mutationCode": "H8L", "protein stability index": 2.29}
{"mutationCode": "L1V", "protein stability index": 2.57}
{"mutationCode": "V15E", "protein stability index": 2.56}
{"mutationCode": "H14N", "protein stability index": 1.97}
{"mutationCode": "E3L", "protein stability index": 1.15}
{"mutationCode": "Y24T", "protein stability index": 3.42}
{"mutationCode": "C19W", "protein stability index": 1.3}
{"mutationCode": "G20Q", "protein stability index": 3.04}
{"mutationCode": "V15Y", "protein stability index": 2.55}

// provenance: the supplement of paper PMC10567573
